Provenance of the data: PubChem BioAssay (Tox21)

- SYSTEM: Nuclear receptor subfamily 1 group I member 2 (Homo sapiens) (UniProt O75469)
- Sequence (O75469 whole entry, looked up): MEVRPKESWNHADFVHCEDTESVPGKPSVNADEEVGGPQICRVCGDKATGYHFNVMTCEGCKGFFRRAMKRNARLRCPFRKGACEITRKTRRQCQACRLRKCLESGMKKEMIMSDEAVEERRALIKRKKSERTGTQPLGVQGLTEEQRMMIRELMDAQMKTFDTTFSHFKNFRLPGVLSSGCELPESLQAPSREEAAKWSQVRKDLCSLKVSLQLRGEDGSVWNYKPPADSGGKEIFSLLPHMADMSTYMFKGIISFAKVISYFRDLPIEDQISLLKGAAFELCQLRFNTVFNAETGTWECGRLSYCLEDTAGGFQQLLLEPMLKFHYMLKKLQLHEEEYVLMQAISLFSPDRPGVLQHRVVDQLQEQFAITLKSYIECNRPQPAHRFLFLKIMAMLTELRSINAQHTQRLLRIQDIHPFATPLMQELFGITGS
- MEASUREMENT_NOTES: Human pregnane X receptor (PXR) small molecule agonists, qHTS assay (AID 1346982); further: nearly all actives have a fitted effect of over 35% in size
- CONDITION_CONTEXT: PXR-Luc HepG2, CYP3A4 luciferase reporter, 24 h; series mostly up to 92.4 µM
- From the text: National Center for Advancing Translational Sciences [NCATS] NIH Chemical Genomics Center [NCGC] U.S. Environmental Protection Agency [EPA] National Institutes of Environmental Health Sciences [NIEHS] National Toxicology Program [NTP] The human pregnane X receptor (hPXR) regulates the expression of several drug metabolizing enzymes and induction of these proteins is a major mechanism for developing drug resistance in cancer. […]
Records with an inconclusive call do not appear. Activity calls are given as the source filed them. The call rests on the fitted dose curve; in most records, active means well fitted activation curve with a large enough effect in the repeat runs; inconclusive means weak or mixed curves; inactive means no such curve, though single readings can be large or run the other way.
Select the correct class. Options are active, inactive and nothing else.

Input: Record request — test call for Cl/C=C\Cl
Output: inactive

Input: Next compound: O=C1C(=O)c2cccc3cccc1c23
Output: active

Input: Next compound: CC1(C)[C@H](C=C(Cl)Cl)[C@@H]1C(=O)O[C@@H](C#N)c1cccc(Oc2ccccc2)c1
Output: active

Input: Next compound: CO[C@@H]1[C@H](OC(=O)NC(=O)CCl)CC[C@]2(CO2)[C@H]1[C@@]1(C)O[C@@H]1CC=C(C)C
Output: active

Input: Next compound: COC(=O)C(Cl)C(=O)OC
Output: inactive

Input: Next compound: [CH3][Sn]([CH3])([Cl])[Cl]
Output: inactive

Input: Next compound: O=C1NCN(c2ccccc2)C12CCN(CCCOc1ccc(F)cc1)CC2
Output: active

Input: Next compound: COCC(C)N(C(=O)CCl)c1c(C)csc1C (configuration not stated)
Output: inactive

Input: Next compound: O=C(Nc1ccccc1)Nc1ccnc(Cl)c1
Output: active

Input: Next compound: O=C(O)C(F)(F)C(F)(F)C(F)(F)C(F)(F)C(F)(F)C(F)(F)C(F)(F)C(F)(F)C(F)(F)F
Output: inactive

Input: Next compound: COc1cc(CC(C)N)cc2c1OCO2 (configuration not stated)
Output: inactive

Input: Next compound: CCOP(=O)(OCC)O/C(=C/Cl)c1ccc(Cl)cc1Cl
Output: active
